- measured target: bovine serum albumin (BSA) (Bos taurus)
- Construct: gene ALB; commercial fatty acid-free native BSA (Shanghai Shenhang Biotechnology), mature, 583 residues, untagged; PDB 4JK4 used only for docking
- Sequence (P02769 25-607): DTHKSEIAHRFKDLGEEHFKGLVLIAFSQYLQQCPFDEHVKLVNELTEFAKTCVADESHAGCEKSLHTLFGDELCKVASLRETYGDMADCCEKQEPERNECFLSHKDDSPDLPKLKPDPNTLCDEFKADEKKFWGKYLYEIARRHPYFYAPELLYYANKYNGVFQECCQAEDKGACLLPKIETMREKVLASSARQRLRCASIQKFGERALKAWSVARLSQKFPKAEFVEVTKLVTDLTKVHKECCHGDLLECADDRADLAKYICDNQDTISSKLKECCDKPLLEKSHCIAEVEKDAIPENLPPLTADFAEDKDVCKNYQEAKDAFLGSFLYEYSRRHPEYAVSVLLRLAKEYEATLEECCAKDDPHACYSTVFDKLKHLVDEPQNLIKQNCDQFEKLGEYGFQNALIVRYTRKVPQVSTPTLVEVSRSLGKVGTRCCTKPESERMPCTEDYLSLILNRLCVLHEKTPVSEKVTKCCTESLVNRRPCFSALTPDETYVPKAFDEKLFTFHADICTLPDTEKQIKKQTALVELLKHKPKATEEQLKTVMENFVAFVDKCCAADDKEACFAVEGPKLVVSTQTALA
- assay method text: intrinsic fluorescence quenching (ex […] nm)
- Format: binding
- condition context: 297 K, pH 7.4, 0.05 M Tris-HCl, 0.1 M NaCl, 5 µM BSA; double-log
endpoint name: Kb (×10^5 L.mol^-1)

Supply measured Kb (×10^5 L.mol^-1) of CC(=O)O[C@H]1[C@H](Oc2c(-c3ccc(O)cc3)oc3cc(O[C@@H]4O[C@@H](C)[C@H](O)[C@@H](O)[C@H]4O)cc(O)c3c2=O)O[C@@H](C)[C@H](O)[C@H]1O [compound 5] in your reply.
0.96 × 10^5 L·mol^−1

Identify measured Kb (×10^5 L.mol^-1) corresponding to CC(=O)O[C@@H]1[C@@H](O)[C@H](C)O[C@@H](Oc2c(-c3ccc(O)cc3)oc3cc(O[C@@H]4O[C@@H](C)[C@H](O)[C@@H](O)[C@H]4O)cc(O)c3c2=O)[C@@H]1O [compound 4]
1.06 × 10^5 L·mol^−1

Give a short answer stating reported Kb (×10^5 L.mol^-1) for CC(=O)O[C@@H]1[C@@H](OC(C)=O)[C@@H](O)[C@H](Oc2c(-c3ccc(O)cc3)oc3cc(O[C@@H]4O[C@@H](C)[C@H](O)[C@@H](O)[C@H]4O)cc(O)c3c2=O)O[C@H]1C [compound 2, crassirhizomoside B] .
0.57 × 10^5 L·mol^−1

Tell me measured Kb (×10^5 L.mol^-1) for CC(=O)O[C@@H]1[C@@H](O)[C@@H](O)[C@H](Oc2cc(O)c3c(=O)c(O[C@@H]4O[C@@H](C)[C@H](OC(C)=O)[C@@H](OC(C)=O)[C@H]4O)c(-c4ccc(O)cc4)oc3c2)O[C@H]1C [compound 1] please.
0.41 × 10^5 L·mol^−1
